Read-out: Glyceraldehyde-3-phosphate dehydrogenase (Homo sapiens)
Assay: CLD_GAPDH_6hr: CellzDirect (CLD) Gene Expression Assay for Baseline Control (Glyceraldehyde 3-phosphate dehydrogenase) at 6 hours (AID 2283681);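 note: active means increased signal relative to DMSO vehicle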
Results filed as inconclusive are left out. The source made the active and inactive calls. Rule for the calls: active = hit-call score of the fitted dose curve at least 0.9, where 1 is the maximum; inconclusive = response in the unintended direction; inactive = score below 0.9.
quantity_name: outcome

Would you please look over these solved cases?
C[C@H]1[C@H](c2ccc(Cl)cc2)SC(=O)N1C(=O)NC1CCCCC1 : inactive
OCCOc1ccccc1 : inactive
Oc1ccc(Cl)cc1Cc1ccccc1 : inactive
[2H]C1([2H])[n+]2ccccc2-c2cccc[n+]2C1([2H])[2H] : inactive
COP(=O)(OC)OC=C(Cl)Cl : inactive

[ask] Request the reported outcome associated with O=S1OCC2C(CO1)C1(Cl)C(Cl)=C(Cl)C2(Cl)C1(Cl)Cl (configuration not stated)
[reply] inactive

[ask] Same lookup for "O=C(O)COc1ccc(Cl)cc1Cl" , please.
[reply] inactive
